# System: primary human T-cells
# Test name: IL2 secretion measurements in CD3-stimulated T-cells
# Format: cell-based
# Test parameters: Homo sapiens, T-cell; isomer A; CD3 antibody-stimulated T-cells, IL2 in supernatant after 24 hours; read-out: Tcell IL2 CD3 EC50
pEC50: −log10 of the molar value.
# if value of pEC50 reaches 6, tag T; if it stays below, tag F

Molecule: COc1ccc(-c2ccc(CN3C(=O)[C@H](N)CC(F)(F)c4cc(F)c(-c5nnc(C(C)(C)C#N)o5)cc43)cc2)cc1 (single isomer, unassigned) [Example 9]
Assigned category: T
//
Molecule: CC(C)(C)c1nnc(-c2cc3c(cc2F)C(F)(F)C[C@@H](N)C(=O)N3Cc2ccc(OC3CCCC3)cc2)o1 (single isomer, unassigned) [Example 7]
Assigned category: T
//
Molecule: CC(F)(F)c1ccc(-c2ccc(CN3C(=O)[C@H](N)CC(F)(F)c4cc(F)c(-c5nnc(C(C)(C)C#N)o5)cc43)cc2)nc1 (single isomer, unassigned) [Example 37]
Assigned category: T

[in] Reported pEC50 reaches at least 6 for CC(C)(C#N)c1nnc(-c2cc3c(cc2F)C(F)(F)C[C@@H](N)C(=O)N3Cc2ccc(-n3ccc(C(F)(F)F)n3)cc2)o1 (single isomer, unassigned) [Example 30] ?
[out] F

Entry source: patent US20250236614A1
